System: blackgrass (Alopecurus myosuroides)
Test: Test A postemergence, blackgrass
Type: in vivo
Conditions: Alopecurus myosuroides, post-emergence, 240 h, 31 g ai/ha, 0 to 100 scale (0 no effect, 100 complete control), read-out: Plant response rating, Blackgrass
Source text: […]
Reported values of pest or weed control at 31 g/ha for individual entries
Measured property: pest or weed control at 31 g/ha (%)

[[record]]
molecule = "O=C1O[C@@H](CCCC(F)(F)F)c2c(Oc3ncc(Cl)cn3)cccc21"
units_symbol = "%"
recorded_result = 0

[[record]]
molecule = "FC(F)(F)CCCC1COc2cccc(Oc3ncc(Cl)cn3)c21 (centres unmarked)"
units_symbol = "%"
recorded_result = 0

[[record]]
molecule = "FC(F)(F)CCCC1OCc2cccc(Oc3ncc(Cl)cn3)c21 (centres unmarked)"
units_symbol = "%"
recorded_result = 10

[[record]]
molecule = "O=C1OC(CCCCC(F)(F)F)Cc2c(Oc3ncc(Cl)cn3)cccc21 (centres unmarked)"
units_symbol = "%"
recorded_result = 0

[[record]]
molecule = "FC(F)(F)CCC1OCc2cccc(Oc3ncc(Cl)cn3)c21 (centres unmarked)"
units_symbol = "%"
recorded_result = 30


###

System: wheat (Triticum aestivum)
Test: Test A postemergence, wheat
Type: in vivo
Conditions: Triticum aestivum, post-emergence, 240 h, 125 g ai/ha, 0 to 100 scale (0 no effect, 100 complete control), read-out: Plant response rating, Wheat
Measured property: plant injury at 125 g/ha (%)

[[record]]
molecule = "O=C1O[C@H](CCC(F)(F)F)c2c(Oc3ncc(Cl)cn3)cccc21"
recorded_result = 100

[[record]]
molecule = "O=C1OC(CCCC(F)(F)F)c2c(Oc3ncc(Cl)cn3)cccc21 (stereo not drawn)"
recorded_result = 30

[[record]]
molecule = "CCCC1OC(=O)Cc2cccc(Oc3ncc(Cl)cn3)c21 (stereo not drawn)"
recorded_result = 0

[[record]]
molecule = "FC(F)(F)CCCC1OCCc2cccc(Oc3ncc(Cl)cn3)c21 (stereo not drawn)"
recorded_result = 10

[[record]]
molecule = "FC(F)(F)CC[C@H]1OCc2cccc(Oc3ncc(Cl)cn3)c21"
recorded_result = 90

[[record]]
molecule = "FC(F)(F)CC[C@@H]1OCc2cccc(Oc3ncc(Cl)cn3)c21"
recorded_result = 0

[[record]]
molecule = "O=C1OCc2cccc(Oc3ncc(Cl)cn3)c2C1CCC(F)(F)F (stereo not drawn)"
recorded_result = 10

[[record]]
molecule = "FC(F)(F)CCCC1COc2cccc(Oc3ncc(Cl)cn3)c21 (stereo not drawn)"
recorded_result = 0

[[record]]
molecule = "O=C1OC(CCC(F)(F)F)Cc2c(Oc3ncc(Cl)cn3)cccc21 (stereo not drawn)"
recorded_result = 30


###

Tested on: foxtail, green (green foxtail, Setaria viridis)
Assay: Test A postemergence, foxtail, green
Type: in vivo
Details: Setaria, post-emergence, 240 h, 31 g ai/ha, 0 to 100 scale (0 no effect, 100 complete control), read-out: Plant response rating, Foxtail, Green
Measured property: pest or weed control at 31 g/ha (%)

[[record]]
compound = "FC(F)(F)CCC1OCc2cccc(Oc3ncc(Cl)cn3)c21 (stereo not drawn)"
assay_system = "foxtail, green (green foxtail, Setaria viridis)"
recorded_result = 20

[[record]]
compound = "O=C1CC(CCC(F)(F)F)c2c(Oc3ncc(Cl)cn3)cccc21 (stereo not drawn)"
assay_system = "foxtail, green (green foxtail, Setaria viridis)"
recorded_result = 0

[[record]]
compound = "FC(F)(F)CCCC1OCc2cccc(Oc3ncc(Cl)cn3)c21 (stereo not drawn)"
assay_system = "foxtail, green (green foxtail, Setaria viridis)"
recorded_result = 30

[[record]]
compound = "FC(F)(F)CCCC1CCc2cccc(Oc3ncc(Cl)cn3)c21 (stereo not drawn)"
assay_system = "foxtail, green (green foxtail, Setaria viridis)"
recorded_result = 20

[[record]]
compound = "O=C1O[C@@H](CCCC(F)(F)F)c2c(Oc3ncc(Cl)cn3)cccc21"
assay_system = "foxtail, green (green foxtail, Setaria viridis)"
recorded_result = 0

[[record]]
compound = "O=C1COC(CCCC(F)(F)F)c2c(Oc3ncc(Cl)cn3)cccc21 (stereo not drawn)"
assay_system = "foxtail, green (green foxtail, Setaria viridis)"
recorded_result = 10

[[record]]
compound = "O=C1OC(CCC(F)(F)F)c2c(Oc3ncc(Cl)cn3)cccc21 (stereo not drawn)"
assay_system = "foxtail, green (green foxtail, Setaria viridis)"
recorded_result = 30

[[record]]
compound = "CCCC1OC(=O)Cc2cccc(Oc3ncc(Cl)cn3)c21 (stereo not drawn)"
assay_system = "foxtail, green (green foxtail, Setaria viridis)"
recorded_result = 10

[[record]]
compound = "CN1C(=O)c2cccc(Oc3ncc(Cl)cn3)c2C1CCCC(F)(F)F (stereo not drawn)"
assay_system = "foxtail, green (green foxtail, Setaria viridis)"
recorded_result = 0


###

System: foxtail, giant (giant foxtail, Setaria faberii)
Assay: Test A preemergence, foxtail, giant
Assay type: in vivo
Conditions: Setaria faberi, pre-emergence, 240 h, 31 g ai/ha, 0 to 100 scale (0 no effect, 100 complete control), read-out: Plant response rating, Foxtail, Giant
Below, each entry is listed alongside its reported pest or weed control at 31 g/ha.
Measured property: pest or weed control at 31 g/ha (%)

[[record]]
compound = "O=C1OCc2cccc(Oc3ncc(Cl)cn3)c2C1CCCC(F)(F)F (centres unmarked)"
recorded_result = 0

[[record]]
compound = "FC(F)(F)CCCC1COc2cccc(Oc3ncc(Cl)cn3)c21 (centres unmarked)"
recorded_result = 10

[[record]]
compound = "O=C1O[C@@H](CCC(F)(F)F)c2c(Oc3ncc(Cl)cn3)cccc21"
recorded_result = 0

[[record]]
compound = "FC(F)(F)CC[C@H]1OCc2cccc(Oc3ncc(Cl)cn3)c21"
recorded_result = 100

[[record]]
compound = "O=C1O[C@H](CCC(F)(F)F)c2c(Oc3ncc(Cl)cn3)cccc21"
recorded_result = 100


###

Tested on: foxtail, green (green foxtail, Setaria viridis)
Assay: Test A preemergence, foxtail, green
Assay type: in vivo
Settings: Setaria, pre-emergence, 240 h, 31 g ai/ha, 0 to 100 scale (0 no effect, 100 complete control), read-out: Plant response rating, Foxtail, Green
Listed here are compounds together with their documented pest or weed control at 31 g/ha.
Measured property: pest or weed control at 31 g/ha (%)

[[record]]
compound = "O=C1COC(CCCC(F)(F)F)c2c(Oc3ncc(Cl)cn3)cccc21 (stereo not drawn)"
recorded_result = 0

[[record]]
compound = "FC(F)(F)CCCC1OCc2cccc(Oc3ncc(Cl)cn3)c21 (stereo not drawn)"
recorded_result = 80

[[record]]
compound = "CN1C(=O)c2cccc(Oc3ncc(Cl)cn3)c2C1CCCC(F)(F)F (stereo not drawn)"
recorded_result = 0

[[record]]
compound = "CCCC1OC(=O)Cc2cccc(Oc3ncc(Cl)cn3)c21 (stereo not drawn)"
recorded_result = 0

[[record]]
compound = "O=C1O[C@H](CCCC(F)(F)F)c2c(Oc3ncc(Cl)cn3)cccc21"
recorded_result = 100

[[record]]
compound = "O=C1O[C@@H](CCCC(F)(F)F)c2c(Oc3ncc(Cl)cn3)cccc21"
recorded_result = 0

[[record]]
compound = "OC1CC(CCCC(F)(F)F)c2c(Oc3ncc(Cl)cn3)cccc21 (stereo not drawn)"
recorded_result = 60

[[record]]
compound = "O=C1NC(CCCC(F)(F)F)c2c(Oc3ncc(Cl)cn3)cccc21 (stereo not drawn)"
recorded_result = 0

[[record]]
compound = "FC(F)(F)CCCC1CCc2cccc(Oc3ncc(Cl)cn3)c21 (stereo not drawn)"
recorded_result = 70


###

System: blackgrass (Alopecurus myosuroides)
Test: Test A postemergence, blackgrass
Type: in vivo
Settings: Alopecurus myosuroides, post-emergence, 240 h, 31 g ai/ha, 0 to 100 scale (0 no effect, 100 complete control), read-out: Plant response rating, Blackgrass
pest or weed control at 31 g/ha values, listed per item
Measured property: pest or weed control at 31 g/ha (%)

[[record]]
compound = "O=C1c2cccc(Oc3ncc(Cl)cn3)c2C1CCC(F)(F)F (centres unmarked) [Compound 24]"
measured_property = "pest or weed control at 31 g/ha"
units_symbol = "%"
recorded_result = 30

[[record]]
compound = "O=C1OCc2cccc(Oc3ncc(Cl)cn3)c2C1CCCC(F)(F)F (centres unmarked) [Compound 26]"
measured_property = "pest or weed control at 31 g/ha"
units_symbol = "%"
recorded_result = 0

[[record]]
compound = "O=C1NC(CCCC(F)(F)F)c2c(Oc3ncc(Cl)cn3)cccc21 (centres unmarked) [Compound 13]"
measured_property = "pest or weed control at 31 g/ha"
units_symbol = "%"
recorded_result = 0

[[record]]
compound = "O=C1COC(CCCC(F)(F)F)c2c(Oc3ncc(Cl)cn3)cccc21 (centres unmarked) [Compound 5]"
measured_property = "pest or weed control at 31 g/ha"
units_symbol = "%"
recorded_result = 10

[[record]]
compound = "O=C1O[C@@H](CCC(F)(F)F)c2c(Oc3ncc(Cl)cn3)cccc21 [Compound 18]"
measured_property = "pest or weed control at 31 g/ha"
units_symbol = "%"
recorded_result = 0

[[record]]
compound = "O=C1OCC(CCC(F)(F)F)c2c(Oc3ncc(Cl)cn3)cccc21 (centres unmarked) [Compound 25]"
measured_property = "pest or weed control at 31 g/ha"
units_symbol = "%"
recorded_result = 20

[[record]]
compound = "O=C1OC(CCC(F)(F)F)Cc2c(Oc3ncc(Cl)cn3)cccc21 (centres unmarked) [Compound 23]"
measured_property = "pest or weed control at 31 g/ha"
units_symbol = "%"
recorded_result = 20

[[record]]
compound = "O=C1O[C@H](CCCC(F)(F)F)c2c(Oc3ncc(Cl)cn3)cccc21 [Compound 3]"
measured_property = "pest or weed control at 31 g/ha"
units_symbol = "%"
recorded_result = 80

